# Test system: Bacillus subtilis
# protocol summary: Antimicrobial activity against Bacillus subtilis by two-fold serial dilution technique
# Format: functional
endpoint: MIC (µg/mL)
Write the answer as a number in µg/mL, unit excluded.

>>> print(df.to_string())
                                   compound  test_value
0  Cc1cc(=O)oc2cc(OCC(O)Cn3cnc4ccccc43)ccc12 (stereo not drawn)         128
1  Cc1cc(=O)oc2cc(OCC(O)Cn3cncn3)ccc12 (stereo not drawn)          32

Please look at the following compound next.
Request: Identify measured MIC associated with Cc1cc(=O)oc2cc(OCC3CO3)cc(OCC3CO3)c12 (stereo not drawn)
Response: 4
